# System: homozygous scn1Lab−/− mutants
# Assay type: in vivo, Danio rerio
# reported conditions: long treatment at MTC (5-HT2B-agonist 3.125 μM), 7 dpf; at least frequency and mean cumulative duration
parameter measured: reduction of epileptiform activity (in words, compared with fenfluramine)

>>> reading("C[C@H]1CNCCc2ccc(Cl)cc21.Cl")
"comparable effects"
>>> reading("COc1ccc(CNC(=O)/C=C/c2ccc3[nH]cc(CCN(C)C)c3c2)cc1")
"comparable effects"
